Origin of the recorded values: PubChem BioAssay AID2061166

target: Microtubule-associated protein tau (Homo sapiens) (UniProt P10636); assay: blockers of AD brain-seeded tau fibril growth – biochemical, seed amplification, ThT fluorescence, primary screen (AID 2061166); details: Recombinant tau seeded by AD brain, ThT fluorescence AUC; at 100 µM; active compounds read high
Sequence (P10636 whole entry, looked up): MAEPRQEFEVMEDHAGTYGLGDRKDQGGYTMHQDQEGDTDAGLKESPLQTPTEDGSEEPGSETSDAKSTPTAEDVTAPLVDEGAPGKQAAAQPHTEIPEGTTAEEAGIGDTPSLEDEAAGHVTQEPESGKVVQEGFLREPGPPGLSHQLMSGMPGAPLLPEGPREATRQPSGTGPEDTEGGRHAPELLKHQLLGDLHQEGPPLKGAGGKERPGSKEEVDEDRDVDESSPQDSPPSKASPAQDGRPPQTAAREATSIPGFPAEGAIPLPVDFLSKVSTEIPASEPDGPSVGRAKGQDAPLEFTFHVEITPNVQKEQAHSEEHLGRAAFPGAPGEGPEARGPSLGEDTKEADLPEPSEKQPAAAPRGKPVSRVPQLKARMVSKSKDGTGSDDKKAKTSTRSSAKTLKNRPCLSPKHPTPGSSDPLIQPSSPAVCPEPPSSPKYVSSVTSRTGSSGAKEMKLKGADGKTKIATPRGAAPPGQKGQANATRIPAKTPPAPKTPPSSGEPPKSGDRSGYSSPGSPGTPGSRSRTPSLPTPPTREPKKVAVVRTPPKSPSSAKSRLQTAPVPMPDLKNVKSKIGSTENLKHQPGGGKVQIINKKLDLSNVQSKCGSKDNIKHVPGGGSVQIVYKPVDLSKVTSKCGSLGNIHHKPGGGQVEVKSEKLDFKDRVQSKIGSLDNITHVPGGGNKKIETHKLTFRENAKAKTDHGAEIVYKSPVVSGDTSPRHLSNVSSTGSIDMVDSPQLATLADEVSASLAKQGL
Observable: inhibition (%)
Kindly answer with a numeric value in %, unit omitted.

Compound	Endpoint result
CN(C)CCc1c[nH]c2ccc(Cn3cncn3)cc12	-4.86
CC(=O)C1CCC2C3CC=C4CC(O)CCC4(C)C3CCC12C (stereo unspecified)	41.9
Nc1c2c(nc3ccccc13)CCCC2	20.6
O=S(=O)(O)c1cc(S(=O)(=O)O)c2c(N=Nc3ccccc3)c(O)ccc2c1	39

Qu. Can you share its inhibition? I mean this compound: NS(=O)(=O)Cc1noc2ccccc12
Ans. 18.2

Qu. May I ask what inhibition has been recorded for COC1CC2CCC(C)C(O)(O2)C(=O)C(=O)N2CCCCC2C(=O)OC(C(C)CC2CCC(OCCO)C(OC)C2)CC(=O)C(C)/C=C(\C)C(O)C(OC)C(=O)C(C)CC(C)/C=C/C=C/C=C/1C (stereo unspecified) ?
Ans. 19.2

Qu. Query (compound): CN(C)CCC=C1c2ccccc2CCc2ccccc21 ; field requested: inhibition
Ans. 13.9

----------
target: Microtubule-associated protein tau (Homo sapiens); test: blockers of AD brain-seeded tau fibril growth – biochemical, seed amplification, ThT fluorescence, primary screen (AID 2061166); conditions: Recombinant tau seeded by AD brain, ThT fluorescence AUC; at 100 µM; active compounds read high
Below, each of the compounds is paired with its reported inhibition value.
# output: bare number, implied unit %

Sample answers from the record:
>>> df
                                   compound  unit_abbrev  endpoint_result
0  CCC(C(=O)O)c1ccc(N2Cc3ccccc3C2=O)cc1 (centres undefined)            %             26.9
1                CCN(CC)C(=S)SSC(=S)N(CC)CC            %            -17.5

Qu. Returns the measured inhibition for the input compound. Input: NC(=O)c1cn(Cc2c(F)cccc2F)nn1
Ans. -11.5

Qu. # query: inhibition of entry CCN(CC)CCCC(C)Nc1c2ccc(Cl)cc2nc2ccc(OC)cc12 (centres undefined)
Ans. 72.2

Qu. Bench note: what inhibition did CCN(CC)CCNC(=O)c1c(C)[nH]c(/C=C2\C(=O)Nc3ccc(F)cc32)c1C show?
Ans. 98.6

Qu. Could you tell me which inhibition is on file for CC(C)(C)c1cc(C(C)(C)C)c(NC(=O)c2c[nH]c3ccccc3c2=O)cc1O ?
Ans. -88.7

Qu. Which inhibition reading was recorded for the compound Cc1ccc(Nc2nccc(N(C)c3ccc4c(C)n(C)nc4c3)n2)cc1S(N)(=O)=O ?
Ans. -1.27

Qu. What does the record list as inhibition for COc1ccc(Cl)cc1C(=O)NCCc1ccc(S(=O)(=O)NC(=O)NC2CCCCC2)cc1 ?
Ans. -30.9

Qu. Given the entry O=C(O)c1ccccc1O , report its measured inhibition.
Ans. 11.4

Qu. // inhibition lookup, key: COc1ccc(C2CNC(=O)C2)cc1OC1CCCC1 (centres undefined)
Ans. 16.3

Qu. What value of measured inhibition is listed for Cn1cnc2c(F)c(Nc3ccc(Br)cc3Cl)c(C(=O)NOCCO)cc21 ?
Ans. -4.66

Qu. I'd like to know its inhibition. The compound in question is CC12CC3CC(C)(C1)CC(N)(C3)C2
Ans. 10.2

Qu. Please look up its inhibition: Cc1ccc(C(C)C)cc1O
Ans. 10.5

Qu. Query: inhibition; subject: O=C(OC1CN2CCC1CC2)N1CCc2ccccc2C1c1ccccc1 (centres undefined)
Ans. -37.8

----------
target: Microtubule-associated protein tau (Homo sapiens) (UniProt P10636); assay: blockers of AD brain-seeded tau fibril growth – biochemical, seed amplification, ThT fluorescence, primary screen (AID 2061166); conditions: Recombinant tau seeded by AD brain, ThT fluorescence AUC; at 100 µM; active compounds read high
Known inhibition of a selection of compounds
I only need the number, in %, no unit after it.

>>> df
                                   compound  observable  unit_abbrev  endpoint_result
0        CNc1ccc2nc3ccc(=[N+](C)C)cc-3sc2c1  inhibition            %              100
1  O=C1C=C(NC(Cc2c[nH]c3ccccc23)C(=O)O)C(=O)c2ccccc21 (stereo not drawn)  inhibition            %             52.4

// next entry
Qu. Quick check: inhibition of CN(C)CCCN1c2ccccc2Sc2ccc(Cl)cc21 ?
Ans. 25.9

----------
molecular target: Microtubule-associated protein tau (Homo sapiens) (UniProt P10636); experiment: blockers of AD brain-seeded tau fibril growth – biochemical, seed amplification, ThT fluorescence, primary screen (AID 2061166); conditions: Recombinant tau seeded by AD brain, ThT fluorescence AUC; at 100 µM; active compounds read high
Observable: inhibition (%)
Response body: numeric value in %, unit text excluded.

The following compounds have reported results that may help.
                                   compound                        measurement_target  endpoint_result
0            Oc1ccc(/C=C/c2cc(O)cc(O)c2)cc1  Microtubule-associated protein tau (Homo sapiens) (UniProt P10636)             16.9
1  COc1cc(C(=O)NCc2ccc(OCCN(C)C)cc2)cc(OC)c1OC  Microtubule-associated protein tau (Homo sapiens) (UniProt P10636)             10.7
2      O=c1cc(-c2ccccc2)oc2cc(O)c(O)c(O)c12  Microtubule-associated protein tau (Homo sapiens) (UniProt P10636)             97.6
3  CC(C)(Sc1cc(C(C)(C)C)c(O)c(C(C)(C)C)c1)Sc1cc(C(C)(C)C)c(O)c(C(C)(C)C)c1  Microtubule-associated protein tau (Homo sapiens) (UniProt P10636)               23

Qu. Look up inhibition for this compound: CN(CCOc1ccc(CC2SC(=O)NC2=O)cc1)c1ccccn1 (centres undefined)
Ans. -61

Qu. Sample Cc1ccc2c(c1)c1c(n2CCc2ccc(C)nc2)CCN(C)C1 — what was its inhibition?
Ans. -29.9

Qu. Given the compound CC1CCC2(OC1)OC1CC3C4CC=C5CC(O)CC(O)C5(C)C4CCC3(C)C1C2C (centres undefined) , what is its reported inhibition?
Ans. 13.9

Qu. Consider the compound COc1cc2nc(N(C)CCCNC(=O)C3CCCO3)nc(N)c2cc1OC (centres undefined) and give its measured inhibition.
Ans. 17.4

Qu. What inhibition value was documented for this compound, COc1ccc(Cc2cnc(N)nc2N)cc1OC ?
Ans. 37.1
